Catalogue of compounds with associated IC50
- Tested on: MV4-11
- protocol.details: Antiproliferative activity against human MV4-11 cells
Numeric answer only, unit µM assumed.

Some entries whose results are on file:
{"structure.smiles.string": "CCOCc1cccc(NC(=O)c2cc3sccc3n2C)c1COc1ccc(OC[C@@H]2CCNC2)cc1", "measured.target": "MV4-11", "IC50, µM": 2.5}
{"structure.smiles.string": "CCn1c(C(=O)Nc2cccc(COC)c2COc2ccc(OC[C@@H]3CCNC3)cc2)cc2sccc21", "measured.target": "MV4-11", "IC50, µM": 4.1}

Here's the next entry for you.
Asked: Recorded IC50 of COCc1cccc(NC(=O)c2cc3sccc3n2C)c1COc1ccc(OC[C@@H]2CCNC2)cc1 , please.
Given back: 1.2

###

- measured.target: LSD1/CoREST complex (Homo sapiens, UniProt O60341)
- protocol.details: Inhibition of recombinant human KDM1A/CoREST complex expressed in Escherichia coli using [Lys(Me1)4]-Histone H3 (1 to 21 residues)-GGK(biotin) as substrate incubated for 20 mins measured after 1 hr by TR-FRET assay
pIC50: −log10 of the molar value.
Note to self: values exactly at 7 are satisfied. So pIC50 at or above 7 is satisfied, below is not satisfied.

{"structure.smiles.string": "Cn1c(C(=O)Nc2ccccc2CCc2ccc(OC3CCNCC3)cc2)cc2sccc21", "category": "not satisfied"}
{"structure.smiles.string": "Cn1c(C(=O)Nc2ccccc2COc2ccc(CNC(=N)N)cc2)cc2sccc21", "category": "not satisfied"}

Asked: State whether the measured pIC50 reaches 7, counting equality as reaching it, for Cn1c(C(=O)Nc2ccccc2COc2ccc(N3CCNCC3)cc2)cc2sccc21
Given back: not satisfied

Asked: Try this compound too: Cn1c(C(=O)Nc2ccccc2OCC2CCN(CC3CCNCC3)CC2)cc2sccc21
Given back: not satisfied

Asked: Try this compound too: CC(=O)N1CCC(Oc2ccc(OCc3ccccc3NC(=O)c3cc4sccc4n3C)cc2)CC1
Given back: not satisfied

###

- measured.target: Amine oxidase [flavin-containing] A (Homo sapiens, UniProt P21397)
- Sequence (P21397 whole entry): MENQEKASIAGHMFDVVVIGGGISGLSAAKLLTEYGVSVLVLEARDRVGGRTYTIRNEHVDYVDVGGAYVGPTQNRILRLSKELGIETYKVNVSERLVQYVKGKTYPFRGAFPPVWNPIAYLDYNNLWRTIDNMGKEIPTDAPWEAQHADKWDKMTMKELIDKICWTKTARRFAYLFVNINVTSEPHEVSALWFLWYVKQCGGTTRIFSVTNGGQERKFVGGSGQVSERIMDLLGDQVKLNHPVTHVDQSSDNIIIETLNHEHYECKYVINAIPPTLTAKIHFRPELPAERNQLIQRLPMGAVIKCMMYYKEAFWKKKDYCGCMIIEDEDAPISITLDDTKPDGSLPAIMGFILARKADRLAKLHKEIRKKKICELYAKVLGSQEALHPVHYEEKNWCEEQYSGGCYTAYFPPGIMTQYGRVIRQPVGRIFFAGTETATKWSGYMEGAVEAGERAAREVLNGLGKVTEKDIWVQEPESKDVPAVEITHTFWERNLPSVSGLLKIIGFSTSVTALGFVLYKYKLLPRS
- protocol.details: Inhibition of recombinant human MAOA incubated for 15 mins measured after 30 mins by luminescence-Glo assay
assay.metric: pIC50
FYI, pIC50 means -log10 of a concentration in mol per litre.

Some entries whose results are on file:
{"structure.smiles.string": "N[C@H]1CC[C@H](N[C@@H]2C[C@H]2c2ccccc2)CC1", "pIC50": 4.38}
{"structure.smiles.string": "COCc1cccc(NC(=O)c2cc3sccc3n2C)c1COc1ccc(OC[C@@H]2CCNC2)cc1", "pIC50": 4.60}
{"structure.smiles.string": "CCn1c(C(=O)Nc2cccc(COC)c2COc2ccc(OC[C@@H]3CCNC3)cc2)cc2sccc21", "pIC50": 4.33}

Asked: Recorded pIC50 of CCOCc1cccc(NC(=O)c2cc3sccc3n2C)c1COc1ccc(OC[C@@H]2CCNC2)cc1 , please.
Given back: 4.38

###

- measured.target: LSD1/CoREST complex (Homo sapiens)
- protocol.details: Inhibition of recombinant human KDM1A/CoREST complex expressed in Escherichia coli using [Lys(Me1)4]-Histone H3 (1 to 21 residues)-GGK(biotin) as substrate incubated for 20 mins measured after 1 hr by TR-FRET assay
assay.metric: pIC50
FYI, pIC50 means -log10 of a concentration in mol per litre.

{"compound": "Cn1c(C(=O)Nc2ccccc2COc2ccc(OC3CCCNC3)cc2)cc2sccc21 (stereo not given)", "pIC50": 6.17}

Here's the next entry for you.
Asked: Recorded pIC50 of CN1CCC(Oc2ccc(OCc3ccc(NC(=O)c4cc5sccc5n4C)cc3)cc2)CC1 , please.
Given back: 5.60

###

- measured.target: LSD1/CoREST complex (Homo sapiens)
- protocol.details: Inhibition of recombinant human KDM1A/CoREST complex expressed in Escherichia coli using [Lys(Me1)4]-Histone H3 (1 to 21 residues)-GGK(biotin) as substrate incubated for 20 mins measured after 1 hr by TR-FRET assay
assay.metric: IC50 (nM)
Numeric answer only, unit nM assumed.

{"compound": "CCn1c(C(=O)Nc2cccc(COC)c2COc2ccc(OC[C@@H]3CCNC3)cc2)cc2sccc21", "measured.target": "LSD1/CoREST complex (Homo sapiens)", "result.unit": "nM", "observed.value": 6.7}

Asked: Recorded IC50 of Cn1c(C(=O)Nc2cccc(CN3CCOCC3)c2COc2ccc(OC3CCNCC3)cc2)cc2sccc21 , please.
Given back: 65

Asked: Try this compound too: CN1CCC(Oc2ccc(COc3ccccc3NC(=O)c3cc4sccc4n3C)cc2)CC1
Given back: 336

Asked: Try this compound too: Cn1c(C(=O)Nc2ccccc2COc2ccc(OCC3CCNC3)cc2)cc2sccc21 (stereo not given)
Given back: 22

Asked: Try this compound too: Cn1c(C(=O)Nc2ccccc2C(=O)Nc2ccc(OC3CCNCC3)cc2)cc2sccc21
Given back: 2200

Asked: Try this compound too: Cn1c(C(=O)Nc2ccccc2COc2ccc(OCC3CNC3)cc2)cc2sccc21
Given back: 618

Asked: Try this compound too: COCc1cccc(NC(=O)c2cc3sccc3n2C)c1COc1ccc(OC2CCCNCC2)cc1 (stereo not given)
Given back: 29.2

Asked: Try this compound too: CN1CCC(Oc2ccccc2OCc2ccccc2NC(=O)c2cc3sccc3n2C)CC1
Given back: 68200

###

- measured.target: LSD1/CoREST complex (Homo sapiens, UniProt O60341)
- protocol.details: Competitive inhibition of recombinant human KDM1A/CoREST complex expressed in Escherichia coli using H3K4me peptide as substrate preincubated for 15 mins followed by substrate addition measured for 12 mins by Lineweaver-Burk plot analysis
assay.metric: pKi
FYI, pKi means -log10 of a concentration in mol per litre.

Asked: Recorded pKi of CN1CCC(Oc2ccc(OCc3ccccc3NC(=O)c3cc4sccc4n3C)cc2)CC1 , please.
Given back: 5.64

###

- measured.target: Amine oxidase [flavin-containing] B (Homo sapiens, UniProt P27338)
- Sequence (P27338 whole entry): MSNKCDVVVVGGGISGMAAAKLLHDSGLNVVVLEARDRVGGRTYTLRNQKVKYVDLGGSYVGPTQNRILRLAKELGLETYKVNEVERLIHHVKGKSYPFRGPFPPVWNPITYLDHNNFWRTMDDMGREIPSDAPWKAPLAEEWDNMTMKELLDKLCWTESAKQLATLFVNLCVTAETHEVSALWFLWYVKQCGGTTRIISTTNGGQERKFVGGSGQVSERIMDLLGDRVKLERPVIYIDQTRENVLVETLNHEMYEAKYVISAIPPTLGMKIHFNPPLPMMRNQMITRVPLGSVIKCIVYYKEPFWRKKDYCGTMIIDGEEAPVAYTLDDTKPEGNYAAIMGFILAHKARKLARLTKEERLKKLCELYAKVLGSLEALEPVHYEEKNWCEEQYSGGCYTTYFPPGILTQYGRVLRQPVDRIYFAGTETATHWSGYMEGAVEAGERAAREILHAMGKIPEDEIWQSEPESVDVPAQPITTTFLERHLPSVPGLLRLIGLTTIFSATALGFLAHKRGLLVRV
- protocol.details: Inhibition of recombinant human MAOB incubated for 15 mins measured after 30 mins by luminescence-Glo assay
pIC50: −log10 of the molar value.
assay.metric: pIC50

Some entries whose results are on file:
{"structure.smiles.string": "COCc1cccc(NC(=O)c2cc3sccc3n2C)c1COc1ccc(OC[C@@H]2CCNC2)cc1", "measured.target": "Amine oxidase [flavin-containing] B (Homo sapiens, UniProt P27338)", "pIC50": "< 4.00"}
{"structure.smiles.string": "CCn1c(C(=O)Nc2cccc(COC)c2COc2ccc(OC[C@@H]3CCNC3)cc2)cc2sccc21", "measured.target": "Amine oxidase [flavin-containing] B (Homo sapiens, UniProt P27338)", "pIC50": "< 4.00"}

Asked: Recorded pIC50 of CCOCc1cccc(NC(=O)c2cc3sccc3n2C)c1COc1ccc(OC[C@@H]2CCNC2)cc1 , please.
Given back: < 4.00

###

- measured.target: LSD1/CoREST complex (Homo sapiens, UniProt O60341)
- protocol.details: Inhibition of recombinant human KDM1A/CoREST complex expressed in Escherichia coli using [Lys(Me1)4]-Histone H3 (1 to 21 residues)-GGK(biotin) as substrate incubated for 20 mins measured after 1 hr by TR-FRET assay
assay.metric: pIC50
FYI, pIC50 means -log10 of a concentration in mol per litre.

{"molecule": "CCOCc1cccc(NC(=O)c2cc3sccc3n2C)c1COc1ccc(OC2CCNCC2)cc1", "observed.value": 7.25}

Asked: API: value(readout= pIC50, system= LSD1/CoREST complex (Homo sapiens, UniProt O60341), query= CNCCCOc1ccc(OCc2ccccc2NC(=O)c2cc3sccc3n2C)cc1 )
Given back: 5.89

Asked: Try this molecule too: Cn1c(C(=O)Nc2ccccc2COc2ccc([C@H]3CC[C@H](N)CC3)cc2)cc2sccc21
Given back: 6.47
